Target: NMDA receptor NR1/NR2A (Rattus norvegicus, UniProt P35439+Q00959)
Sequence (Q00959 23-1464, other chains not shown): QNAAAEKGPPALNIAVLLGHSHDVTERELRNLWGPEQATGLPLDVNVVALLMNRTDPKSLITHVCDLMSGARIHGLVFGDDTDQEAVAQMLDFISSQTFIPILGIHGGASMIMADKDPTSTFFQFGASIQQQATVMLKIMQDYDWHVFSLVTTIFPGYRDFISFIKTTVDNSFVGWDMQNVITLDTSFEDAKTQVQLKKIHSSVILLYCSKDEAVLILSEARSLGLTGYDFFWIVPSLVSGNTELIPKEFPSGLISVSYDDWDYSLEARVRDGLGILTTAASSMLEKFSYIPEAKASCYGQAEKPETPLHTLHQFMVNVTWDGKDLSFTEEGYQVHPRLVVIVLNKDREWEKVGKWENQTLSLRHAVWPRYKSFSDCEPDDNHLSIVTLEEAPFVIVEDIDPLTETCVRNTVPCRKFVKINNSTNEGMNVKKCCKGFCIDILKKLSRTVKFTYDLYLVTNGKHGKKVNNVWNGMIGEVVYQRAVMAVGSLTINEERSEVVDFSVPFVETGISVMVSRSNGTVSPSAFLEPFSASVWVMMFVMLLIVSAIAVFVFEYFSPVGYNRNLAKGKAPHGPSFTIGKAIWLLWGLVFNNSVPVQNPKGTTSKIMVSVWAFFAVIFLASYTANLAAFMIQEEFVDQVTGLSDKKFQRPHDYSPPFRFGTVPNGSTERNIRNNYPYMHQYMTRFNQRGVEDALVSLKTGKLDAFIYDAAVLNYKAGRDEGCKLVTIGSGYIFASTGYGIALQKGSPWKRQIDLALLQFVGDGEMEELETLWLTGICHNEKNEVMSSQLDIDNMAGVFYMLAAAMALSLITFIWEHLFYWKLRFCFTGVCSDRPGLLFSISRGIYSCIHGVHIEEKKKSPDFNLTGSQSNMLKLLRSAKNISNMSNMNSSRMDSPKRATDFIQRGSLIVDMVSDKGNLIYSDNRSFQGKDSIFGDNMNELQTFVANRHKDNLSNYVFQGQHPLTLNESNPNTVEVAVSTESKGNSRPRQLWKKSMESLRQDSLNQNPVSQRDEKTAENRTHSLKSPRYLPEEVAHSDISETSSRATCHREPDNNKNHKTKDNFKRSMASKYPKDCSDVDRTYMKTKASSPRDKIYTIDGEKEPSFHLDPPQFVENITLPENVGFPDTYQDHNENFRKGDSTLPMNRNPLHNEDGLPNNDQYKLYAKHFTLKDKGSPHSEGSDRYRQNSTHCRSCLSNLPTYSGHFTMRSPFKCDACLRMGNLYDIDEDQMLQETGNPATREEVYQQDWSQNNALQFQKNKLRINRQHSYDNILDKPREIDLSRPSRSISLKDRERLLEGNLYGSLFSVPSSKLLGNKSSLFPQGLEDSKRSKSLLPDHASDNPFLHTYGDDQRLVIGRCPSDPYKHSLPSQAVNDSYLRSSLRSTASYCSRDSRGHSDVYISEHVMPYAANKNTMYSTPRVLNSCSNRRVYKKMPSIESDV
Assay: two-electrode voltage clamp, NMDA receptor activity inhibition in Xenopus oocytes (NR1/NR2A)
Assay type: cell-based
Conditions: Xenopus oocytes, Vh -70 mV, glutamate and glycine as agonists, mean ± S.E.M. of 4 to 5 oocytes; read-out: IC50 NR1/NR2A
metric: pIC50
Give only the number. pIC50 is defined as minus log10 of concentration in molar units.

Return reported pIC50; argument: CN(C)c1cccc2c(S(=O)(=O)NCCCNCCCCNCCCN)cccc12 [Dansyl-SPM, N^1-Dansyl-Spermine, reference compound]
6.57

Form field: reported pIC50 of Cc1ccc(S(=O)(=O)NCCCCNCCCCNCCCCN)cc1 [TsPD]
7.13

Any idea what pIC50 was measured for Cc1ccc(S(=O)(=O)NCCCNCCCCNCCCN)cc1 [Tosyl-SPM, N^1-Tosyl-Spermine, reference compound] ?
6.46

// lookup pIC50 for Cc1ccc(S(=O)(=O)NCCCNCCCCNCCCNC(=N)N)cc1 [TsSPMG]
6.49

Quick one: pIC50 of CCCCS(=O)(=O)NCCCCNCCCCNCCCCNC(=N)N [BsPDG] ?
7.82

---

Target: NMDA receptor NR1/NR2B (Rattus norvegicus, UniProt P35439+Q00960)
Sequence (Q00960 27-1482, other chains not shown): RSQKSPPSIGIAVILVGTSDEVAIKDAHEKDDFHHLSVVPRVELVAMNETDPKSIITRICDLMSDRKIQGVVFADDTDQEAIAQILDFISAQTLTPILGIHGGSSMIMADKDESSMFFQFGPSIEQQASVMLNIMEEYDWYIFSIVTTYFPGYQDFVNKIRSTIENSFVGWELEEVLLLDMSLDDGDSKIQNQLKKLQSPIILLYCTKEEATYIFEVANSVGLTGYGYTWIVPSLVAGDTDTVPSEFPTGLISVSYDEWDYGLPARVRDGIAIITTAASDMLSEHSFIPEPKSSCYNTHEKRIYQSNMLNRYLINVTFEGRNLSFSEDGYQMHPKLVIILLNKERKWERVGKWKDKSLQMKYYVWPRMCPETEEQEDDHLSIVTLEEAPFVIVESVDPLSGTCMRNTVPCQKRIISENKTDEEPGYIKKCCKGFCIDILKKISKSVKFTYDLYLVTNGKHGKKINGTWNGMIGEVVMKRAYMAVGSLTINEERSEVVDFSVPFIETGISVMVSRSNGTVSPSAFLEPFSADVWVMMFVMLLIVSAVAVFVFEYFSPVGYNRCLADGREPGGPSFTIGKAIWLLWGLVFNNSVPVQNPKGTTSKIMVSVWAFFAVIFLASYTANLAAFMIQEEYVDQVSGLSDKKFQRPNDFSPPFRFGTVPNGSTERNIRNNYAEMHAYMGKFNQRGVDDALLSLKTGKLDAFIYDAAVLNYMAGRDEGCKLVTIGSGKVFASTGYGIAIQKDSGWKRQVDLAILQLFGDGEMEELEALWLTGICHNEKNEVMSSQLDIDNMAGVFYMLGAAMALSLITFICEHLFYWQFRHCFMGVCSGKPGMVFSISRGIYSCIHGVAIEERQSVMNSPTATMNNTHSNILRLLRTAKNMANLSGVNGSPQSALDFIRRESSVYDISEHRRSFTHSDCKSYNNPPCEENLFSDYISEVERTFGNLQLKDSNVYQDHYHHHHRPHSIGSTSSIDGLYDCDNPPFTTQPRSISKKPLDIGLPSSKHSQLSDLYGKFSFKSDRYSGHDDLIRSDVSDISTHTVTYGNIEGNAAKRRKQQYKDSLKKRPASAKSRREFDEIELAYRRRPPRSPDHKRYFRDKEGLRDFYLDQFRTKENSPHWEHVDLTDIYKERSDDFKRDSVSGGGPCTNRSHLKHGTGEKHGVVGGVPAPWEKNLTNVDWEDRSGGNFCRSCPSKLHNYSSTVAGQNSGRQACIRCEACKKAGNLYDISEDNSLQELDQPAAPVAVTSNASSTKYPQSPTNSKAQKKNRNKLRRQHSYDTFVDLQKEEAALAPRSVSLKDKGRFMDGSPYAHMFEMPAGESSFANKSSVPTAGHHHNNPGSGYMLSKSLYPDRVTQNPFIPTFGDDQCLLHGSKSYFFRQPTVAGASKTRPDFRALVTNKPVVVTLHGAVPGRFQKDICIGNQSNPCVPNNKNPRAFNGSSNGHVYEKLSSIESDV
Assay: two-electrode voltage clamp, NMDA receptor activity inhibition in Xenopus oocytes (NR1/NR2B)
Assay type: cell-based
Details: Xenopus oocytes, Vh -70 mV, glutamate and glycine as agonists, mean ± S.E.M. of 4 to 5 oocytes; read-out: IC50 NR1/NR2B
metric: pIC50
pIC50 field: float, defined as -log10 of concentration (mol/L).

Check out these entries, answers already filled in.
• Cc1ccc(S(=O)(=O)NCCCNCCCCNCCCNC(=N)N)cc1 = 6.43
• Cc1ccc(S(=O)(=O)NCCCNCCCCNCCCN)cc1 [Tosyl-SPM, N^1-Tosyl-Spermine, reference compound] = 6.40
• CCCCS(=O)(=O)NCCCCNCCCCNCCCCNC(=N)N = 7.62

Given Cc1ccc(S(=O)(=O)NCCCCNCCCCNCCCCN)cc1 , state its recorded pIC50.
6.82

Param item = CN(C)c1cccc2c(S(=O)(=O)NCCCNCCCCNCCCN)cccc12 [Dansyl-SPM, N^1-Dansyl-Spermine, reference compound] ; retrieve measured pIC50.
6.51

---

Target: NMDA receptor NR1/NR2A (Rattus norvegicus, UniProt P35439+Q00959)
Test: two-electrode voltage clamp, NMDA receptor activity inhibition in Xenopus oocytes (NR1/NR2A)
Type: cell-based
metric: pIC50
The quantity pIC50 is defined as the negative base-10 logarithm of the molar concentration.

Give the measured pIC50 of Cc1ccc(S(=O)(=O)NCCCCNCCCCNCCCCNC(=N)N)cc1 [TsPDG] .
7.77

---

Test: cytotoxicity test, Alamar blue assay
Assay type: cell-based
Conditions: human, undifferentiated SH-SY5Y neuroblastoma cells, 24 hours exposure, read-out: IC50 (concentration at which respiratory activity is 50%)
metric: IC50 at 24 h (µM)
Numeric answer only, unit µM assumed.

• Cc1ccc(S(=O)(=O)NCCCNCCCCNCCCN)cc1 [Tosyl-SPM, N^1-Tosyl-Spermine, reference compound] = 336

Look up IC50 at 24 h: CN(C)c1cccc2c(S(=O)(=O)NCCCNCCCCNCCCN)cccc12 [Dansyl-SPM, N^1-Dansyl-Spermine, reference compound]
30

---

Test: cytotoxicity test, Alamar blue assay
Format: cell-based
Conditions: human, undifferentiated SH-SY5Y cells, 24 hours exposure, read-out: IC50 (concentration at which respiratory activity is 50%)
metric: IC50 at 24 h (µM)
Write the number in µM without appending the unit.

Some solved cases for reference:
- Cc1ccc(S(=O)(=O)NCCCCNCCCCNCCCCNC(=N)N)cc1 [TsPDG]: 2870
- Cc1ccc(S(=O)(=O)NCCCNCCCCNCCCNC(=N)N)cc1 [TsSPMG]: 2640

Kindly consider the entry below.
// lookup IC50 at 24 h for Cc1ccc(S(=O)(=O)NCCCCNCCCCNCCCCN)cc1 [TsPD]
1830
